B1: P2RY14 (parent)
chain: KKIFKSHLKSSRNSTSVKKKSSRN

variants of: B1; assay: protein stability index of a GFP-peptide fusion (GPS, HEK-293T) (PSI 1-6); higher = more stable; conditions: c terminus: a fixed tail appended;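 further: lentivirally expressed fusions sorted by FACS into six bins by GFP to DsRed ratio, PSI derived from sequencing read proportions per bin multiplied by bin number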
RECORDED_METRIC: protein stability index

// lookup protein stability index for S14W
3.44

// lookup protein stability index for S21E
3.8

// lookup protein stability index for I3E
5.07

// lookup protein stability index for S21C
3.84

// lookup protein stability index for F4V
4.39

// lookup protein stability index for K5S
4.2

// lookup protein stability index for S6V
3.79

// lookup protein stability index for N13Q
4.2

// lookup protein stability index for I3D
4.95

// lookup protein stability index for V17N
4.21

// lookup protein stability index for K5W
3.45

// lookup protein stability index for T15V
3.55

// lookup protein stability index for S10T
4.17

// lookup protein stability index for V17L
4.02

// lookup protein stability index for K19G
4.02

// lookup protein stability index for H7Q
3.67

// lookup protein stability index for H7Y
3.38

// lookup protein stability index for K20S
4.07

// lookup protein stability index for S14Y
4.1

// lookup protein stability index for S10C
4.03

// lookup protein stability index for I3L
4.23

// lookup protein stability index for R12M
4.03

// lookup protein stability index for K20V
3.81

// lookup protein stability index for R23M
3.76

// lookup protein stability index for F4G
4.56

// lookup protein stability index for S11C
3.93

// lookup protein stability index for S16Q
4.48

// lookup protein stability index for H7P
3.74

// lookup protein stability index for N24P
3.91

// lookup protein stability index for K20H
3.62

// lookup protein stability index for S6Y
3.34

// lookup protein stability index for K1L
3.18

// lookup protein stability index for S11F
3.69

// lookup protein stability index for T15D
4.28

// lookup protein stability index for S22C
4.07

// lookup protein stability index for K20Q
4.04

// lookup protein stability index for S21K
4.48

// lookup protein stability index for S16C
3.38

// lookup protein stability index for V17T
4.41

// lookup protein stability index for K18Y
3.66

// lookup protein stability index for K5H
4.33

// lookup protein stability index for S6F
3.34

// lookup protein stability index for K19W
2.96

// lookup protein stability index for S11A
3.93

// lookup protein stability index for K1A
4.12

// lookup protein stability index for K20T
3.62
